Target: Sodium channel protein type 3 subunit alpha (Homo sapiens)
Sequence (Q9NY46 whole entry): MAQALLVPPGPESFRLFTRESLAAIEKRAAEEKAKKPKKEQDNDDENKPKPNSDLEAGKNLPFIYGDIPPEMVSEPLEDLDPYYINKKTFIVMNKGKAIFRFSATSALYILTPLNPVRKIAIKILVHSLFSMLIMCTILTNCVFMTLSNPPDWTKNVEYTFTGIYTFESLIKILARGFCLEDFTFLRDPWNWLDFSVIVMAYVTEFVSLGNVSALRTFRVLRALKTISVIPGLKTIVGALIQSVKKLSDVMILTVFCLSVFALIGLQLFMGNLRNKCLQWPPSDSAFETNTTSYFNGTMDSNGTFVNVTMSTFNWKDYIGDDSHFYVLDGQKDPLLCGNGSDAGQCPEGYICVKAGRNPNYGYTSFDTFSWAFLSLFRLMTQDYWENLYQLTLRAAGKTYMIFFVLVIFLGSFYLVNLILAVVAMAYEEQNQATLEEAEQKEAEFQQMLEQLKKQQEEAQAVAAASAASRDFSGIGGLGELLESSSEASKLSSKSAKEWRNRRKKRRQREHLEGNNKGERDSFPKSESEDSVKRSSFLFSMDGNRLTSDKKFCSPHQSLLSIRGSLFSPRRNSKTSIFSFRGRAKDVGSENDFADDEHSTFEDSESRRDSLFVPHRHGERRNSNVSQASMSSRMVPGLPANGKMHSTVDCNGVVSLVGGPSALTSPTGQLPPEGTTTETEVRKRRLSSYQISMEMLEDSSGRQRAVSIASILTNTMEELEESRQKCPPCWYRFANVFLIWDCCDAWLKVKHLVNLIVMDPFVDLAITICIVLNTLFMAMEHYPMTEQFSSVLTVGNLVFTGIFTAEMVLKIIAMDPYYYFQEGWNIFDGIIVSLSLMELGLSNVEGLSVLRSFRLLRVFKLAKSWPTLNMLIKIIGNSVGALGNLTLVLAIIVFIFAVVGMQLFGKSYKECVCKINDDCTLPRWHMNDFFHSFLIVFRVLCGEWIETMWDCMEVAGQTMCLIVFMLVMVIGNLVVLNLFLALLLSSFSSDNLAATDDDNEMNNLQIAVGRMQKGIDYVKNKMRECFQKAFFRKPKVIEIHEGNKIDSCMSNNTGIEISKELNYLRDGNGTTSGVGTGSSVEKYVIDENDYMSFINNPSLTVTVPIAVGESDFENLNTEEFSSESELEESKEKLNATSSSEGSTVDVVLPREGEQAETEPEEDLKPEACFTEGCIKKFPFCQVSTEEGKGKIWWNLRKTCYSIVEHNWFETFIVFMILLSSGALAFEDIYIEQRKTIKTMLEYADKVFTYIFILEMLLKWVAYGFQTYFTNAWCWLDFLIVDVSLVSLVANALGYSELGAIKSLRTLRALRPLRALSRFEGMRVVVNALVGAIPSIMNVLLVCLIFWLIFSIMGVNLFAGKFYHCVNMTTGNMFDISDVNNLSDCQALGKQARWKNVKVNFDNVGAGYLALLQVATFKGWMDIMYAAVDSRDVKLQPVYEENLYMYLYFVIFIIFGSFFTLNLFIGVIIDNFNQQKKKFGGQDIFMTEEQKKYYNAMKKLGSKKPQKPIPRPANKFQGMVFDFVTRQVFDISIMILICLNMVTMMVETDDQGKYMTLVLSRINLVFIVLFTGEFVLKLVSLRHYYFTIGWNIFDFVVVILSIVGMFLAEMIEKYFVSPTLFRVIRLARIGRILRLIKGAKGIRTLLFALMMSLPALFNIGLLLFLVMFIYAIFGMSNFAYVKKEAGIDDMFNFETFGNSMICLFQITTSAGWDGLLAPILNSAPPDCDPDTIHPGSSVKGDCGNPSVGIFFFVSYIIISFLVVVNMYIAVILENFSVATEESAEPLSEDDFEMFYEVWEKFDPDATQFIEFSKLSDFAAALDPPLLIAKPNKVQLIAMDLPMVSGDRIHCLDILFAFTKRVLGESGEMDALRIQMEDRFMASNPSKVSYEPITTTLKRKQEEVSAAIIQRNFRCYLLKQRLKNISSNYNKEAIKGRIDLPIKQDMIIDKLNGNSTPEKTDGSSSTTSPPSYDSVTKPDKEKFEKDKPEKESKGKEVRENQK
Assay: Inhibition of human NaV1.3 expressed in HEK cells by electrophysiological method
Format: cell-based
pIC50: −log10 of the molar value.
Lab note: anything with pIC50 at or over 6 counts as Criterion met; the rest go in Criterion not met.

Example entries begin here.
SMILES_DATA | CLASS
O=S(=O)(Nc1nccs1)c1ccc(S(=O)(=O)N2CCC(c3cccc(C(F)(F)F)n3)CC2)cc1F | Criterion not met
O=C(NCc1ccc(OC(F)(F)F)c(Cl)c1)c1ccc(S(=O)(=O)Nc2nccs2)c(F)c1 | Criterion met
O=C(c1ccc(S(=O)(=O)Nc2ncns2)c(F)c1)N1CCC(c2ccnc(C(F)(F)F)n2)CC1 | Criterion not met

Attention now shifts to the item below.
Exam item: In plain terms: is recorded pIC50 at least 6 for O=C(Nc1ccc(S(=O)(=O)Nc2nccs2)cc1)C(c1ccccc1)c1ccccc1 ?
Marked response: Criterion met

Value source: ChEMBL document CHEMBL4257443
